RUN DESCRIPTION: Genotoxicity in Salmonella typhimurium TA1535 harboring pSK1002 assessed as survival at 0.001 mg/ml in presence of Sprague-Dawley rat liver S9 fraction after by SOS/umu assay relative to control
Format: toxicity, organism-based
RUN CONDITIONS: salmonella enterica subsp. enterica serovar typhimurium, read-out: Survival
ASSAY METRIC: viability at 0.001 mg/ml (%)
Number only, in %; omit the unit.

Example entries begin here.
>  <COMPOUND>
Nc1ccc(N2CCC(NCCC(O)c3ccc(F)c4ccccc34)CC2)c(C(F)(F)F)c1 (stereo unspecified)

>  <QUANTITATIVE RESULT>
119

$$$$
>  <COMPOUND>
OC(CCN1CCN(C(c2ccccc2)c2ccccc2)CC1)c1ccc(Br)cc1 (stereo unspecified)

>  <QUANTITATIVE RESULT>
84.1

$$$$
>  <COMPOUND>
OC(CCN1CCN(C(c2ccccc2)c2ccccc2)CC1)c1ccc(F)c(Cl)c1 (stereo unspecified)

>  <QUANTITATIVE RESULT>
91.4

$$$$
>  <COMPOUND>
COc1ccccc1C1=CCN(CCC(O)c2ccc(F)c3ccccc23)CC1 (stereo unspecified)

>  <QUANTITATIVE RESULT>
106

$$$$
>  <COMPOUND>
N#Cc1ccc(N2CCC(NCCC(O)c3ccc(F)c4ccccc34)CC2)c(Cl)c1 (stereo unspecified)

>  <QUANTITATIVE RESULT>
154

$$$$
>  <COMPOUND>
OC(CCN1CC=C(c2ccc(F)cc2)CC1)c1ccc2c(c1)OCO2 (stereo unspecified)

>  <QUANTITATIVE RESULT>
111

$$$$

For reference, reported viability at 0.001 mg/ml for O=[N+]([O-])c1ccccc1N1CCN(CCC(O)c2ccc(F)c3ccccc23)CC1 (stereo unspecified) stands at 77.8

For reference, reported viability at 0.001 mg/ml for COC(=O)c1ccc(C(O)CCN2CC=C(c3ccc(F)cc3)CC2)cc1 (stereo unspecified) stands at 110

For reference, reported viability at 0.001 mg/ml for OC(CCN1CCN(C(c2ccccc2)c2ccccc2)CC1)c1ccc(F)c(F)c1 (stereo unspecified) stands at 98.5

For reference, reported viability at 0.001 mg/ml for OC(CCN1CCN(C(c2ccccc2)c2ccccc2)CC1)c1ccc(Cl)cc1 (stereo unspecified) stands at 96.7

For reference, reported viability at 0.001 mg/ml for O=[N+]([O-])c1ccc(N2CCN(CCC(O)c3ccc(F)c4ccccc34)CC2)cc1 (stereo unspecified) stands at 110

For reference, reported viability at 0.001 mg/ml for N#Cc1ccc(N2CCC(NCCC(O)c3ccc(F)c4ccccc34)CC2)c(C(F)(F)F)c1 (stereo in doubt; 72) stands at 121

For reference, reported viability at 0.001 mg/ml for OC(CCN1CCN(C(c2ccccc2)c2ccccc2)CC1)c1ccc(F)c2ccccc12 (stereo unspecified) stands at 108

For reference, reported viability at 0.001 mg/ml for OC(CCN1CCN(c2ccccc2C(F)(F)F)CC1)c1ccc(F)c2ccccc12 (stereo in doubt; 55) stands at 106

For reference, reported viability at 0.001 mg/ml for N#Cc1ccc(C(O)CCN2CC=C(c3ccc(F)cc3)CC2)cc1 (stereo unspecified) stands at 104

For reference, reported viability at 0.001 mg/ml for Oc1ccc(C(O)CCN2CC=C(c3ccc(F)cc3)CC2)cc1 (stereo unspecified) stands at 102

// provenance: ChEMBL document CHEMBL4152256
